test-system: mouse TRP-M8 receptor (Mus musculus, UniProt Q8R4D5)
Sequence (Q8R4D5 whole entry): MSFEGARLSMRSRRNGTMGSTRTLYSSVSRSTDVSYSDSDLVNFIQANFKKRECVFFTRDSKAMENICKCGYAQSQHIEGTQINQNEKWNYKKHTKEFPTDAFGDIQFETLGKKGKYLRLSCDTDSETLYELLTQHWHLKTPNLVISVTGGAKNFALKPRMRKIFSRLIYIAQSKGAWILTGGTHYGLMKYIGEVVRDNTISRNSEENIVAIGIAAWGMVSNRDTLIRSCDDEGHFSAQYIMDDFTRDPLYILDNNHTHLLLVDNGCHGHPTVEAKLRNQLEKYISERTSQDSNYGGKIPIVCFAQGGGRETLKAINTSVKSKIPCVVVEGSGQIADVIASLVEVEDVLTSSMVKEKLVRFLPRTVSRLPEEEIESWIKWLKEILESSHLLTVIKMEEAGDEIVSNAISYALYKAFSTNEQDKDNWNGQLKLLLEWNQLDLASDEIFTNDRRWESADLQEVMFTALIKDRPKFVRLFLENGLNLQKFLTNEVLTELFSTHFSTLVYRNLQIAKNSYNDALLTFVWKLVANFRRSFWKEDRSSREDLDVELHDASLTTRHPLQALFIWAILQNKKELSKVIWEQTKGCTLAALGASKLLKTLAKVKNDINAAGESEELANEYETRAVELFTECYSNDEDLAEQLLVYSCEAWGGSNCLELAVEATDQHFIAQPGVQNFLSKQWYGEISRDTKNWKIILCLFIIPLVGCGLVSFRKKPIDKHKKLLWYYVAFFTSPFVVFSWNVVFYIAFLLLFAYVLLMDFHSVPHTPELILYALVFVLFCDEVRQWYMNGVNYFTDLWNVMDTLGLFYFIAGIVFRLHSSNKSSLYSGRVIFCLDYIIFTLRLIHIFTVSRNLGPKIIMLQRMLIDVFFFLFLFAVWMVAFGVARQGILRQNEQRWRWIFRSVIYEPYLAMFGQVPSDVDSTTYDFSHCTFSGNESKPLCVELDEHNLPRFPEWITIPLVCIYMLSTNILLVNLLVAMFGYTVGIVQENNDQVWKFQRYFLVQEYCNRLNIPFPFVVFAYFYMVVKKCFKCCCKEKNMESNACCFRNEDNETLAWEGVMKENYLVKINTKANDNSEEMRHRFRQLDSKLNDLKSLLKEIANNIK
experiment-notes: Voltage patch-clamp of HEK cells transiently transfected with mouse TRP-M8
condition-label: patch-clamp dose-response; read-out: EC50 for full activation of the receptor
assay-endpoint: pEC50
Answers are plain numbers, as −log10 of the molar value.

## Input I would be grateful if you could share the reported pEC50 for CC1CCC(C(C)C)C(C(=O)Nc2ccc(S(=O)(=O)Nc3ncccn3)cc2)C1 (stereo not shown) .
## Output 5.70
